system: MS2 coat protein; assay: apparent KD of MS2 coat protein; designed switch direction (-1 OFF switch, 1 ON switch): -1; higher = weaker reporter binding; conditions: input ligand: microRNA oligo, concentration not stated
Recorded apparent KD of MS2 coat protein for the following sequences
I only need the number, in nM, no unit after it.

Worked set:
Quick note, apparent KD of MS2 coat protein for AUUUAAUUUAGCGAGAUCACAUGAGGAUCACCCAUGUAUAUAUAGGAUAUCAGCUCGUUUAGAGCUGAGAAGGAUAUAUACCGC [ExNG3/7-A2] (Eterna round: R96, puzzle: Exclusion NG 3) landed at 74

For this sequence ( UUCGUGCUGCUUUGCUGUACGAGUACAUGAGGAUCACCCAUGUAGGAUAUGGUACGCUUUGCGUGCUAGAAGGAUAUGUGUAGC [salish99_ExNG3_r04_505] (Eterna round: R96, puzzle: Exclusion NG 3) ), measured apparent KD of MS2 coat protein is 18.9

New cases:
Sample GCACGGAAUGCAGGAUAUCUGUGCGAUUAGCUCAGAGAAGGGCACAUGAGGAUCACCCAUGUGUAUAAAACACAAAAUCCGUGC [Eli exng1 - 067] (Eterna round: R96, puzzle: Exclusion NG 1) ; apparent KD of MS2 coat protein observed: 7.71

apparent KD of MS2 coat protein in this record for GGUACUCAAAGAGUACCAAUACGAACAUGAGGAUCACCCAUGUAGGAUAUGCUACUCAAAGAGUAGCAGAAGGAUAUGAACCCU [Far Half Aptamer v8] (Eterna round: R96, puzzle: Exclusion NG 3) : 16.8

Form: sequence = UUUCGGCAUGUAGGAUAUGGGUCCGAUUAGGAUUUAGAAGGACAUGAGGAUCACCCAUGUGCAUUUAAUUGGUCAUUACCUUUU [EXclNG1-LROPPY10] (Eterna round: R96, puzzle: Exclusion NG 1) ; apparent KD of MS2 coat protein = 46.5

The measured apparent KD of MS2 coat protein associated with ACAUGAGGAUCACCCAUGUCCGGCUGGUCCGUUUCGGCUGUCGAGGAUAUAGUUCGGUGUCCGCGCUAGAAGGCGGGAGCCGGC [Aenatbe mod 62] (Eterna round: R96, puzzle: Exclusion NG 3) reads 80.9

Recorded apparent KD of MS2 coat protein (sequence UUUCUACAUGUAGGAUAUGCGUGGCGAAGCUAUGCAGAAGGACAUGAGGAUCACCCAUGUUUUAGCGUCUGCGUACAGAUGCGU [JL ENG1 1.49] (Eterna round: R96, puzzle: Exclusion NG 1) ): 16.2

---

Each entry below carries its recorded apparent KD of MS2 coat protein.
tested on: MS2 coat protein; assay: apparent KD of MS2 coat protein; higher = weaker reporter binding; settings: Eterna round: R107; input ligand: arginine 13.2 mM
Just the number in µM, nothing appended.

Reference set (3 entries):
# ACCUGCGUUUGAUUCUAUCAGACGCAGGUUCGAGGACCGGUACGGCCGCCACUCGGACAUGAGGAUCACCCAUGUUUGACAUGGG [#04 Exclusion Tryptophan A] with MS2 coat protein: apparent KD of MS2 coat protein is 0.134

Case UCGGAUGCGGCGGCCGCCACUCGCGGAUAACGAUAGCUUAACAUGAGGAUCACCCAUGUGUCAUGGAGGACCGGGCCCAUACCGU [pbpmullin] , MS2 coat protein, apparent KD of MS2 coat protein recorded as 0.0188

apparent KD of MS2 coat protein of CCUCAUGAACAUGAGGAUCACCCAUGUACACGAGGACCGGUACGGCCGCCACUCGAAUAACCUAAAUAUAAAUAAUAAUAAUAGG [5' end split MS2] , assay on MS2 coat protein, is 0.0146

---
# value of apparent KD of MS2 coat protein, MS2 coat protein, item GGACCAUGGAGCGAUACCAGCUUGAGUGUGCUGGCCAGGCACAUGAGGAUCACCCAUGUAAGCCCUUGGCAGCGCUCCAUGGUCC [#1 Exclusion - Theophylline B Attempt #26 (HarryS)] = 0.00745

The sequence UGACAUUGCUCAGAUACCAGACAUGAGGAUCACCCAUGUGCCAAAUAAACGUACAUAAAUGUCCCUUGGCAGCUGAGCAAUGUCU [TheoBX 11 #MS2Left #Theo2] , tested on MS2 coat protein, showed apparent KD of MS2 coat protein of 0.0468

Form: item UAAUGCAUGACGGCCGCCACUAGAACAUGAGGAUCACCCAUGUACGGCGGCCGUCAUGGGUGGACUAGGACCGGGUCAUGCAUAU [(Trp1)-(Ms2)-(T)'-(M)'-(Trp2)_Design5] ; test system MS2 coat protein; apparent KD of MS2 coat protein: 0.0082

Tested on MS2 coat protein, the item GGGCGAGUGGCGCGGCGUGCUCCGCUCCGUCGAGGACCGGUACGGCCGCCACUCGACAUGAGGAUCACCCAUGUGCGAGCUCGCG [#1 Exclusion - Tryptophan A Attempt #12 (HarryS)] showed apparent KD of MS2 coat protein equal to 0.0247

Observed apparent KD of MS2 coat protein on MS2 coat protein, entry CUCUGAGUGAGCAAUCACUCAGAGGCGGAUACCAGCGAGGUCCAUCGCCCUUGGCAGCCGAACAUGAGGAUCACCCAUGUCGGUA [#1 Same State - Theophylline A Attempt #22 (HarryS)] , equals 0.00929

---

test system: K4 kissing-loop RNA reporter; assay: apparent KD of K4 kissing-loop reporter; higher = weaker reporter binding; settings: Eterna round: R107; input ligand: none;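 note: bound reporter read as fluorescence of individual clusters on recovered sequencing chips by microscopy, with normalized cluster intensities fitted with a binding model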
apparent KD of K4 kissing-loop reporter values, listed per item
Report the figure in µM without appending any unit label.

// apparent KD of K4 kissing-loop reporter value for CGUUCAUCCUAGGCGUGAGUGAUGUUUACCCGAGGACCGGUACGGCCGCCACUCGUAUGGCGAGAGUUUAGCCAUUUCCAAUAUA [theeternabot_exclusion_KL_Trp_A_17] : 0.503

Further cases:
For GUGGUACAGGCGGCCGCCACUAGUGAUGUUAGUGAUAGAAGAUAUAGUAAAUAUCGGCAUUUAGAUAGGACCGGGCCUGGUGGUG [xxfxcmullin] the sequence record lists apparent KD of K4 kissing-loop reporter as 0.305

Reported apparent KD of K4 kissing-loop reporter of UUGAGCCGGACUUAAGUCCGGCUCUGCGAGCGAGGACCGGUACGGCCGCCACUCGGUGCAGUGAUGUUGCAUGGCCGCAAGGCCG [#2 Exclusion - Tryptophan A Attempt #11 (HarryS)] : 0.298

---

tested on: MS2 coat protein; test: apparent KD of MS2 coat protein, switch ON state; designed switch direction (-1 OFF switch, 1 ON switch): -1; higher = weaker reporter binding; settings: FMN input: 0 or 200 uM; Eterna round: R93 (includes R88 designs)
measure: apparent KD of MS2 coat protein (nM)
A number alone suffices; assume nM.

These solved cases illustrate the format of a correct answer.
apparent KD of MS2 coat protein in this record for AGCUAGAGAGGAUAUACAUGGAAAAAAAAAGUCUGAUCCCUACAUGAGGAUCACCCAUGUAGAAGGCUCUGGCA [Ex2 Design 158: Sub-opt 22] : 23.5

Value of measured apparent KD of MS2 coat protein for the entry GGUUGGCGAGGAUAUACAUGAGGAUCACCCAUGUGAGAGGAAAAAGUGAGGAGGAGAAGUAGAAGGCGCUGACG [salish99-ex3-22] : 29.6

In plain terms, AAAAAGUGAGGAUAUACGGUGAGGAGUAGACACAACCUGGCGUAGAAGGCACAUGAGGAUCACCCAUGUCCAAA [EX4 Malc#13] has a documented apparent KD of MS2 coat protein of 37.3

Noted for GCAUGCGAAGGAUAUACAUGAGGAUCACCCAUGUGAGAGAAAAAAGUGAGAAAGAAAAGUAGAAGGUCGUGUGG [salish99-ex3-94] : its apparent KD of MS2 coat protein reads 40.7

For record AUAGGCCAAGGAUAUACAUGAGGAUCACCCAUGUAAAUAACUCGAUCAAAAUAAACAAGUAGAAGGUGGAAUAA [JR_Exc003_Sub204] the listed apparent KD of MS2 coat protein is 25.1

Here is another sequence to look at.
Reported apparent KD of MS2 coat protein for AAAAAGGUAGGAUAUGCAAAAAAUAAUUUAAAAAAAAAAAAACAUGAGGAUCACCCAUGUAGAAGGACCAAAAA [Design 2.0] was 25.9

---

tested on: MS2 coat protein; assay: apparent KD of MS2 coat protein, switch OFF state (with FMN for OFF switches, without FMN for ON switches); designed switch direction (-1 OFF switch, 1 ON switch): -1; higher = weaker reporter binding; conditions: FMN input: 0 or 200 uM; Eterna round: R93 (includes R88 designs)
Decision: apparent KD of MS2 coat protein >= 60 nM yields condition met, all other cases yield condition not met.

Data request: Hi team, for AACAGGUGAGGAUAUCUGGAUAGGAAAAAGAAAACCUAUCCAGAGAAGGCACAUGAGGAUCACCCAUGUAAAAA [JL cataway mod 8] , is the recorded apparent KD of MS2 coat protein at or above 60 nM?
Data returned: condition met

Continuing:
Data request: Confirm if apparent KD of MS2 coat protein reported for the sequence UACAGACAUGAGGAUCACCCAUGUGAGGAUAUUCAUAACGAUAUUACAAGUAUGACAGGAAGAAGGCACAGCAA [JR_Exc001_Sub010] is 60 nM or above.
Data returned: condition not met

Data request: Answer whether apparent KD of MS2 coat protein of ACCUAACAUGAGGAUCACCCAUGUGAGGAUAUAGACGUGAAUUAAACACGUAACAAAACUAGAAGGCACUGGGC [Erbeardi] is greater than or equal to 60 nM.
Data returned: condition not met

Data request: Identify whether the reported apparent KD of MS2 coat protein of the following sequence is 60 nM or greater: AAAAAGGAAGGAUAUACGAACAUGUCGAAAGACGUGAAGGGACAUGAGGAUCACCCAUGUAGAAGGUUCAAAAA [Mat - Exclusion 2 - JL mod - D80]
Data returned: condition not met

Data request: Does UAAAGACAUGAGGAUCACCCAUGUGAGGAUAUCGGAGAUGACGGAACAUCGAGUUCGGCGAGAAGGCGCAGGAA [JR_Exc001_Sub407] have a reported apparent KD of MS2 coat protein of at least 60 nM?
Data returned: condition not met

Data request: Textbook exercise: given the entry AACAGUACAGGAUAUACAUGAGGAUCACCCAUGUGAAUAAAUAGUGGCGUACCACAAAGUAGAAGGGUACUGGA [Mat - Exclusion 3 - JL mod - D25] , state whether its apparent KD of MS2 coat protein is greater than or equal to 60 nM.
Data returned: condition met

Data request: Is the recorded value of apparent KD of MS2 coat protein equal to or greater than 60 nM for this sequence? GAAAAGUCAGGAUAUGCAGAAAAAAAAACGAAAAAAAAACUGCAGAAGGGACAUGAGGAUCACCCAUGUUAAAA [Mat - Exclusion 4 - Mayanna - D127]
Data returned: condition not met

Data request: Reported apparent KD of MS2 coat protein reaches at least 60 nM for AAAAAAGGAGGAUAUACGAACAUGUCAAAAGACGUGAAGGGACAUGAGGAUCACCCAUGUAGAAGGCUUAAAAA [JL Stem Breaker 4] ?
Data returned: condition not met

Data request: Would you say AAAAAACAUGAGGAUCACCCAUGUAAGGAUAUGCUAGGAAAAAGAAAAAUAAAAACUAGCAGAAGGUACAUGAA [JL wbt mod 11] shows apparent KD of MS2 coat protein at minimum 60 nM?
Data returned: condition met
